Tested on: lymphocytes of healthy persons
Assay Protocol: Active E-rosette test, lymphocytes of healthy persons
Format: cell-based, human
Recorded Conditions: 10^-11 moles/liter, n = 4
Residues, ends and D or L forms follow the SMILES beside them.
Parameter Measured: E-rosette forming activity, percentage amount of active lymphocytes

Compound: CC(C)[C@H](NC(=O)[C@H](CC(=O)O)NC(=O)[C@H](CCCCN)NC(=O)[C@@H](N)CCCNC(=N)N)C(N)=O [Arg--Lys--Asp--Val--NH2, Arg-Lys-Asp-Val-NH2] (H-RKDV-NH2)
Readout Value: 38.1%

Compound: CC(C)[C@H](NC(=O)[C@H](CCCCN)NC(=O)[C@H](CC(=O)O)NC(=O)[C@@H](N)CCCNC(=N)N)C(=O)O [Arg--Asp--Lys--Val, Arg-Asp-Lys-Val] (H-RDKV-OH)
Readout Value: 36.4%

Compound: CC(C)[C@H](NC(=O)[C@H](C)NC(=O)[C@H](CCCCN)NC(=O)[C@@H](N)CCCNC(=N)N)C(=O)O [Arg--Lys--Ala--Val, Arg-Lys-Ala-Val] (H-RKAV-OH)
Readout Value: 30.9%

###

Reported E-rosette forming activity, percentage amount of active lymphocytes values for the following compounds.
System: lymphocytes of patients suffering from rheumatoid arthritis
Assay Protocol: Active E-rosette test, lymphocytes of rheumatoid arthritis patients
Type: cell-based, human
Recorded Conditions: 10^-9 moles/liter, n = 4
Non-standard residues stand in square brackets, D forms with d. Residues, ends and D or L forms follow the SMILES beside them. pGlu = O=C1CC[C@@H](C(=O)O)N1
Parameter Measured: E-rosette forming activity, percentage amount of active lymphocytes

Compound: CC(C)[C@H](NC(=O)[C@H](CC(=O)O)NC(=O)[C@H](CCCCN)NC(=O)[C@H](CCCNC(=N)N)NC(=O)[C@@H]1CCC(=O)N1)C(=O)O [Glp--Arg--Lys--Asp--Val, Glp-Arg-Lys-Asp-Val] ([pGlu]RKDV-OH)
Readout Value: 19.4%
--
Compound: CC(C)[C@H](NC(=O)[C@H](CC(=O)O)NC(=O)[C@H](C)NC(=O)[C@@H](N)CCCNC(=N)N)C(=O)O [Arg--Ala--Asp--Val, Arg-Ala-Asp-Val] (H-RADV-OH)
Readout Value: 20.7%
--
Compound: CC(C)[C@H](NC(=O)[C@H](CCCCN)NC(=O)[C@H](CC(=O)O)NC(=O)[C@@H](N)CCCNC(=N)N)C(=O)O [Arg--Asp--Lys--Val, Arg-Asp-Lys-Val] (H-RDKV-OH)
Readout Value: 27.3%

Hey, just so you know, these numbers are from patent US4428938A.
